Tested on: HL-1 cardiomyocytes, H2O2 injury, ATP luminescence, 2 h
Protocol summary: H2O2-induced HL-1 cell death suppression – ATP luminescence, dose response (AID 602215);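 also: potency is for protection so actives raise ATP signal against peroxide damage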
Active and inactive are the calls of the source.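 The calls were made as follows: active = IC50 of 20 µM or lower; inactive = the rest.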
Possible outcomes: Y for active, N for inactive

{"columns": ["Chemical structure", "Label"],
 "data": [
  ["COc1ccc(-c2cc(C(=O)N(C)Cc3ccc(OC)c(OC)c3OC)c3ccccc3n2)cc1OC", "Y"],
  ["Cc1ccc(-c2csc(N3CCC[C@@H]3C(=O)NCCn3c(-c4ccncc4)nc4ccccc43)n2)cc1", "N"],
  ["COc1cc(OC)cc(-c2cc3nc(C)c(CCC(=O)Nc4nc(C)cs4)c(C)n3n2)c1", "N"],
  ["CCN(CC)C(=O)c1[nH]cnc1C(=O)NCC(=O)OCc1ccccc1", "N"],
  ["COc1cc(-c2cc(NC=O)c3ncc(-c4ccc(C(C)=O)cc4)n3c2)cc(OC)c1OC", "Y"],
  ["N#C/C(=C\\Nc1ccc2c(c1)OCCO2)c1nc2ccccc2[nH]1", "N"],
  ["COc1cc(-c2cc(C(=O)NCc3ccco3)c3ccccc3n2)cc(OC)c1OC", "N"],
  ["Cc1ccc(-n2cc(-c3ccccc3)c3c(N4CCOCC4)ncnc32)cc1", "N"],
  ["CCOC(=O)c1c(C)[nH]c(C)c1C(=O)COc1ncnc2cc([N+](=O)[O-])ccc12", "N"]
]}

====

Test system: HL-1 cardiomyocytes, H2O2 injury, ATP luminescence, 2 h
Protocol summary: H2O2-induced HL-1 cell death suppression – ATP luminescence, dose response (AID 602215);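 also: potency is for protection so actives raise ATP signal against peroxide damage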
Calls of active or inactive are those of the source.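 The calls were made as follows: active = IC50 of 20 µM or lower; inactive = the rest.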
Possible outcomes: y for active, n for inactive

{"columns": ["Compound", "Label"],
 "data": [
  ["O=C(CCCN1C(=O)c2cccc3cccc(c23)C1=O)N1CCN(c2ccccc2O)CC1", "y"],
  ["COc1cccc(-c2cnc3c(NC=O)cc(-c4cc(C)c(O)c(C)c4)cn23)c1", "y"],
  ["COCCN1Cc2cccc(C(=O)Nc3cccc(-c4nc5ccccc5[nH]4)c3)c2C1=O", "n"],
  ["O=C(CN1CCN(c2ccccn2)CC1)Nc1ccc([N+](=O)[O-])cc1C(=O)Nc1ccccc1F", "n"],
  ["CC(=O)Nc1cccc(-c2cc(NC(C)=O)c3ncc(-c4ccccc4)n3c2)c1", "n"],
  ["CC1(c2ccccc2)NC(=O)N(CC(=O)Nc2cccc(/C=C/c3ccccn3)c2)C1=O (centres undefined)", "y"],
  ["CNC(=O)c1ccc(-c2sc3nc(N4CCOCC4)c4c(c3c2N)CC(C)(C)OC4)o1", "y"],
  ["Cc1ccc(NC(=O)c2nc[nH]c2C(=O)NCCCNC(=O)c2[nH]cnc2C(=O)Nc2ccc(C)cc2)cc1", "n"],
  ["COc1ccc(-c2cc(-c3nnc(COC(=O)c4ccncc4)o3)c3ccccc3n2)cc1OC", "n"]
]}

====

Measured IC50 by item
Test system: HL-1 cardiomyocytes, H2O2 injury, ATP luminescence, 2 h
Protocol summary: H2O2-induced HL-1 cell death suppression – ATP luminescence, dose response (AID 602215);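 also: potency is for protection so actives raise ATP signal against peroxide damage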
The source made the active and inactive calls.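 The calls were made as follows: active = IC50 of 20 µM or lower; inactive = the rest.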

{"columns": ["Compound", "IC50"],
 "data": [
  ["O=C(NCC(=O)N(Cc1ccccc1)C(C(=O)NC1CCCCC1)c1ccco1)c1ccco1 (stereo not given)", "> 79 µM (inactive)"],
  ["CCOC(=O)C1CCN(c2cc3c(cc2NC(=O)c2ccccc2Cl)n(C)c(=O)n3C)CC1", "> 79 µM (inactive)"],
  ["COc1cccc(CN(C)C(=O)C(Cc2ccccc2)NC(=O)c2ccccc2)c1OC (stereo not given)", "> 79 µM (inactive)"],
  ["Cc1[nH]c2ccccc2c1/C=N/NC(=O)c1cc(-c2cccs2)[nH]n1", "> 79 µM (inactive)"],
  ["COc1ccc(C(C(=O)NCc2ccccc2)N(Cc2ccco2)C(=O)c2snc(C(N)=O)c2N)cc1 (stereo not given)", "44.1 µM (inactive)"],
  ["COc1ccc(-c2cc(C(=O)Nc3ccccc3N3CCOCC3)c3ccccc3n2)cc1OC", "4.35 µM"],
  ["COc1ccc2c(c1OC)C(=O)N1c3ccccc3C(=O)N(c3ccccc3)C21 (stereo not given)", "> 79 µM (inactive)"],
  ["CNC(=O)COC(=O)/C=C/c1cn(-c2ccccc2)nc1-c1ccc(C)o1", "37.1 µM (inactive)"],
  ["COc1cc(NC(=O)c2cc3ccccc3cc2OC)ccc1NC(=O)c1cccs1", "4.22 µM"],
  ["COC(=O)c1cc2c(-c3ccccc3)cc3ccccn3c-2c1C(=O)OC", "> 79 µM (inactive)"]
]}
